# TGI listing for each entry below
# System: HS 578T breast
# TEST DETAILS: NCI tumour cell line growth inhibition, 48 h

CC(CO)(Nc1ccc([N+](=O)[O-])cc1[N+](=O)[O-])C(=O)O (centres undefined) = 46.3 µM
O=c1[nH]nc(-c2ccccc2)n1O = > 100 µM
CNNC(=NS(=O)(=O)c1cc(C#N)c(NNC)cc1S)NNC = > 10 µM

Then this compound:
Query string: Please look up its TGI: `COc1cc(Oc2nc3ccc(C(F)(F)F)cc3nc2-c2ccccc2)cc(OC)c1OC`
Result string: > 100 µM

---

# System: HCT-15 colon
# TEST DETAILS: NCI tumour cell line growth inhibition, 48 h; in the data active means GI50 below about 0.43 µM; inactive means the rest
Write down one outcome, taken from 1 (active), 0 (inactive)

Query string: Answer briefly: the call reported for `COc1cc2cc(Oc3ccc(NC(=O)c4ccc(Cl)c(Cl)c4)cc3)c(C)nc2cc1OC` in this assay.
Result string: 0

Query string: Lab log entry: `c1cc(N2CCN(c3ccc(C4=NCCCN4)cc3)CC2)ccc1C1=NCCCN1` — outcome as called in the assay?
Result string: 0
